# targetSystem: protein-protein interaction between Kras and SOS1 (biotin-tagged human Kras loaded with GDP, His-tagged human SOS1) (Homo sapiens (Human), UniProt P01116, G12D)
# protocolDescription: Protein-protein interaction inhibition between Kras and SOS1 (KrasG12D-SOS PPI) using AlphaScreen
# Assay type: biochemical
# assayConditions: AlphaScreen; biotin-tagged human Kras loaded with GDP, His-tagged human SOS1; read-out: KRAS G12D-SOS PPI IC50
Bridge positions count the residues as written; N and C are the ends. Square brackets hold non-standard residues; d marks the D form. Peptide text beside a SMILES is read from it. * marks the point of attachment. hPhe(3-Cl-4-CF3) = N[C@@H](CCc1ccc(C(F)(F)F)c(Cl)c1)C(=O)O; NMePhe(4-CF3) = CN[C@@H](Cc1ccc(C(F)(F)F)cc1)C(=O)O; 3Oxa8azabicyclo(3.2.1)octane = C1CC2COCC1N2*; NMeGly(cPent) = CN[C@H](C(=O)O)C1CCCC1; NMeCha = CN[C@@H](CC1CCCCC1)C(=O)O; NMeD = CN[C@@H](CC(=O)O)C(=O)O; NMeL = CN[C@@H](CC(C)C)C(=O)O; NMeV = CN[C@H](C(=O)O)C(C)C; Ac6c = NC1(C(=O)O)CCCCC1; NMeA = CN[C@@H](C)C(=O)O; Piperidide = C1CCN(*)CC1; Ac5c = NC1(C(=O)O)CCCC1; Aze = O=C(O)[C@@H]1CCN1; Sar = CNCC(=O)O
reportedEndpoint: pIC50
One number for each entry, as −log10 of the molar value.

[[record]]
compound = "CC[C@H](C)[C@@H]1NC(=O)[C@H](CC(C)C)N(C)C(=O)C[C@@H](C(=O)N2CCCCC2)N(C)C(=O)[C@H](C(C)C)N(C)C(=O)C2(CCCCC2)NC(=O)[C@@H]2CCCN2C(=O)[C@H](CCc2ccc(C(F)(F)F)c(Cl)c2)NC(=O)CN(C)C(=O)[C@H](CC2CCCCC2)N(C)C(=O)[C@@H]2CCN2C(=O)[C@H](C)N(C)C1=O [Compound 1708] ([NMeL]I[NMeA][Aze][NMeCha][Sar][hPhe(3-Cl-4-CF3)]P[Ac6c][NMeV][NMeD]-Piperidide; lactam N-11)"
reportedendpoint = "pIC50"
measvalue = 8.00


Now for a further compound.
The reported value for CC[C@H](C)[C@@H]1NC(=O)[C@H](CC(C)C)N(C)C(=O)C[C@@H](C(=O)N2C3CCC2COC3)N(C)C(=O)[C@H](C2CCCC2)N(C)C(=O)C2(CCCC2)NC(=O)[C@@H]2CCCN2C(=O)[C@H](CCc2ccc(C(F)(F)F)c(Cl)c2)NC(=O)CN(C)C(=O)[C@H](Cc2ccc(C(F)(F)F)cc2)N(C)C(=O)[C@@H]2CCN2C(=O)[C@H](C)N(C)C1=O [Compound 422] ([NMeL]I[NMeA][Aze][NMePhe(4-CF3)][Sar][hPhe(3-Cl-4-CF3)]P[Ac5c][NMeGly(cPent)][NMeD]-{3Oxa8azabicyclo(3.2.1)octane}; lactam N-11) in terms of pIC50 is 9.06

* * *

# targetSystem: protein-protein interaction between Kras and SOS1 (biotin-tagged human Kras loaded with GDP, His-tagged human SOS1) (Homo sapiens (Human), UniProt P01116, G12D)
# protocolDescription: Protein-protein interaction inhibition between Kras and SOS1 (KrasG12D-SOS PPI) using AlphaScreen;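 note: kras produced in E. coli, Ni-coupled donor beads and streptavidin acceptor beads, excitation 680 nm with emission detected at 520–620 nm via singlet oxygen transfer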
# Format: biochemical
# assayConditions: AlphaScreen; biotin-tagged human Kras loaded with GDP, His-tagged human SOS1; read-out: KRAS G12D-SOS PPI IC50
Bridge positions count the residues as written; N and C are the ends. Square brackets hold non-standard residues; d marks the D form. Peptide text beside a SMILES is read from it. * marks the point of attachment. hPhe(3-Cl-4-CF3) = N[C@@H](CCc1ccc(C(F)(F)F)c(Cl)c1)C(=O)O; hPhe(3-F,4-CF3) = N[C@@H](CCc1ccc(C(F)(F)F)c(F)c1)C(=O)O; NMeCha = CN[C@@H](CC1CCCCC1)C(=O)O; NMeI = CC[C@H](C)[C@H](NC)C(=O)O; NMeD = CN[C@@H](CC(=O)O)C(=O)O; NMeL = CN[C@@H](CC(C)C)C(=O)O; NMeV = CN[C@H](C(=O)O)C(C)C; hSer = N[C@@H](CCO)C(=O)O; NMeA = CN[C@@H](C)C(=O)O; Piperidide = C1CCN(*)CC1; Ac5c = NC1(C(=O)O)CCCC1; Aze = O=C(O)[C@@H]1CCN1; Sar = CNCC(=O)O
reportedEndpoint: IC50

[[record]]
compound = "CC[C@H](C)[C@@H]1NC(=O)[C@H](CC(C)C)N(C)C(=O)C[C@@H](C(=O)N2CCCCC2)N(C)C(=O)[C@H]([C@@H](C)CC)N(C)C(=O)C2(CCCC2)NC(=O)[C@@H]2CCCN2C(=O)[C@H](CCc2ccc(C(F)(F)F)c(F)c2)NC(=O)CN(C)C(=O)[C@H](CC2CCCCC2)N(C)C(=O)[C@@H]2CCN2C(=O)[C@H](C)N(C)C1=O [Compound 409] ([NMeL]I[NMeA][Aze][NMeCha][Sar][hPhe(3-F,4-CF3)]P[Ac5c][NMeI][NMeD]-Piperidide; lactam N-11)"
measvalue = "2.4 nM"


The reported value for COCC[C@@H]1NC(=O)[C@H](CC(C)C)N(C)C(=O)C[C@@H](C(=O)N2CCCCC2)N(C)C(=O)[C@H](C(C)C)N(C)C(=O)C2(CCCC2)NC(=O)[C@@H]2CCCN2C(=O)[C@H](CCc2ccc(C(F)(F)F)c(Cl)c2)NC(=O)CN(C)C(=O)[C@H](CC2CCCCC2)N(C)C(=O)[C@@H]2CCN2C(=O)[C@H](C)N(C)C1=O [Compound 17] ([NMeL][hSer](Me)[NMeA][Aze][NMeCha][Sar][hPhe(3-Cl-4-CF3)]P[Ac5c][NMeV][NMeD]-Piperidide; lactam N-11) in terms of IC50 is 30 nM
